Structures can show the parent of a compound that is named as a salt.
ENDPOINT: melting point

• CN(C)C1COc2cccc3c2c(cn3S(=O)(=O)c2cccc3ccccc23)C1 (stereo not shown) = 148 to 149 °C
• CN(C)C1COc2cccc3c2c(cn3S(=O)(=O)c2ccccc2Br)C1 (stereo not shown) (as salt: oxalate) = 173 to 176 °C (dec.)
• COc1ccc(S(=O)(=O)n2cc3c4c(cccc42)OCC(N(C)C)C3)cc1 (stereo not shown) (as salt: oxalate) = 140 to 142 °C (dec.)
• C=CCNC1COc2cccc3[nH]cc(c23)C1 (stereo not shown) = 112 to 113 °C
• CN(C)C1COc2cccc3c2c(cn3S(=O)(=O)c2cc(F)c(Br)cc2F)C1 (stereo not shown) (as salt: oxalate) = 128 to 131 °C (dec.)
• CN(C)C1COc2c(Br)ccc3c2c(cn3S(=O)(=O)c2ccccc2)C1 (stereo not shown) = 89 to 90 °C
• CN(C)C1COc2cccc3c2c(cn3S(=O)(=O)c2ccc(F)cc2F)C1 (stereo not shown) (as salt: oxalate) = 163 to 164 °C (dec.)
• CN(C)C1COc2cccc3c2c(cn3S(=O)(=O)c2cccc(Br)c2)C1 (stereo not shown) (as salt: oxalate) = 168 to 171 °C (dec.)
• COc1ccc(S(=O)(=O)n2cc3c4c(cccc42)OCC(N(C)C)C3)cc1OC (stereo not shown) (as salt: oxalate) = 123 to 126 °C (dec.)
• CN(C)C1COc2cccc3c2c(cn3S(=O)(=O)c2ccc(F)cc2)C1 (stereo not shown) (as salt: oxalate) = 143 to 144 °C (dec.)
• CCCNC1COc2cccc3[nH]cc(c23)C1 (stereo not shown) = 137 to 139 °C
• COc1cccc(S(=O)(=O)n2cc3c4c(cccc42)OCC(N(C)C)C3)c1 (stereo not shown) = 103 to 104 °C
• COc1ccc(OC)c(S(=O)(=O)n2cc3c4c(cccc42)OCC(N(C)C)C3)c1 (stereo not shown) (as salt: oxalate) = 147 to 150 °C (dec.)
• CCCN(CCC)C1COc2cccc3[nH]cc(c23)C1 (stereo not shown) = 60 to 61 °C
• CCN(CC)C1COc2cccc3c2c(cn3S(=O)(=O)c2ccccc2)C1 (stereo not shown) = 106 to 108 °C
• c1cc2c3c(c[nH]c3c1)CC1(CO2)OCCO1 = 200 to 202 °C
